target: FGFR1 (human); test: radiometric filter-binding kinase assay; conditions: compound 10.0 µM
reported_metric: residual activity (%)
Please state the figure in %; there is no need to write the unit.

[
  {
    "compound": "O=C(O)c1ccc(-c2c[nH]c3ncc(-c4ccccc4)cc23)cc1C1CCCC1",
    "units_label": "%",
    "readout_value": 27
  },
  {
    "compound": "Cc1ccc(Sc2cnc(Nc3cccc(Br)n3)s2)cc1C(=O)N1CCN(C(=O)CN)CC1",
    "units_label": "%",
    "readout_value": 11
  },
  {
    "compound": "NC(=O)c1cc2c(-c3cccc(-c4ccccc4)c3)cnc(N)c2s1",
    "units_label": "%",
    "readout_value": 85
  },
  {
    "compound": "O=C(O)c1cc(N=Nc2ccc(S(=O)(=O)Nc3ccccn3)cc2)ccc1O",
    "units_label": "%",
    "readout_value": 115
  },
  {
    "compound": "NC(=O)c1cc(-c2ccnc(NC3CCCCC3)c2)nc(N2CCNCC2)c1",
    "units_label": "%",
    "readout_value": 82
  }
]

Quick one: residual activity for Cc1cc(SCc2sc(-c3ccc(C(F)(F)F)cc3)nc2C)ccc1OCC(=O)O ?
81

Quick one: residual activity for Nc1cccc2c1CN(C1CCC(=O)NC1=O)C2=O (stereo not given) ?
109

Quick one: residual activity for Cc1ccc2c(c1)C(=O)[C@@]1(O)CCN(c3ccccc3)C1=N2 ?
118

Quick one: residual activity for CCn1c(-c2nonc2N)nc2cncc(CNC3CCNCC3)c21 ?
121

Quick one: residual activity for NC(=O)Nc1ccc2c(c1)/C(=C/c1cc(-c3cccnc3)c[nH]1)C(=O)N2 ?
1

Quick one: residual activity for C=CC(=O)N1CCC[C@@H](n2nc(-c3ccc(Oc4ccccc4)cc3)c3c(N)ncnc32)C1 ?
15

Sourced from the kinase profiling compilation of Christmann-Franck et al. (2016)
